Conditions: in n-propanol, 283.15 K
REPORTED ENDPOINT: solubility (mole fraction)
One number for each entry.

Return solubility (mole fraction) (reported value) for this compound: CSCCC(NC(C)=O)C(=O)O (racemic) 0.031

###

Conditions: in 2-butanone, 323.15 K
REPORTED ENDPOINT: solubility (mole fraction)
Numbers only.

State its solubility (mole fraction) for this molecule: CSCCC(NC(C)=O)C(=O)O (racemic) 0.0568

###

Settings: in ethanol, 283.15 K
REPORTED ENDPOINT: solubility (mole fraction)
One number for each entry.

Identify solubility (mole fraction) associated with the compound CSCCC(NC(C)=O)C(=O)O (racemic) 0.0453
